System: cancer cell lines
ASSAY NOTES: Multiplexed cytotoxicity assay: cell proliferation (relative cell count IC50, GI50)
Format: cell-based
EXPERIMENTAL PARAMETERS: Homo sapiens, MCF7, MCF7 (Breast)
MEASUREMENT LABEL: IC50 (µM)
Number in µM, nothing else.

Qu. Under cancer cell lines: IC50 value of C[C@]1(C(N)=O)CC[C@@H](n2c(Nc3c(Cl)cc(Cl)cc3Cl)nc3cnc(N[C@@H]4CCOC[C@H]4F)nc32)CC1 ?
Ans. 3.47

----------
System: cancer cell lines
ASSAY NOTES: Multiplexed cytotoxicity assay: cell proliferation (relative cell count IC50, GI50)
Format: cell-based
EXPERIMENTAL PARAMETERS: 72 h, HS729, Soft Tissue, Sarcoma
MEASUREMENT LABEL: IC50

Qu. Under cancer cell lines: IC50 value of C[C@]1(C(N)=O)CC[C@@H](n2c(Nc3c(Cl)cc(Cl)cc3Cl)nc3cnc(N[C@@H]4CCOC[C@H]4F)nc32)CC1 [Compound 1] ?
Ans. > 10 µM

----------
Test system: cancer cell lines
ASSAY NOTES: Multiplexed cytotoxicity assay: cell proliferation (relative cell count IC50, GI50)
Assay type: cell-based
EXPERIMENTAL PARAMETERS: Homo sapiens, PANC-1, 72 h, PANC1, Pancreas; 72 h
MEASUREMENT LABEL: IC50 (nM)
Number in nM, nothing else.

Qu. Please look up its IC50: C[C@]1(C(N)=O)CC[C@@H](n2c(Nc3c(Cl)cc(Cl)cc3Cl)nc3cnc(N[C@@H]4CCOC[C@H]4F)nc32)CC1 [Compound 1]
Ans. 80

----------
ASSAY NOTES: Approximate solubility in various solvents at room temperature
Format: physicochemical
EXPERIMENTAL PARAMETERS: acetone, organic solvent or mixture, thermodynamic from solid
MEASUREMENT LABEL: solubility at 1 day

Qu. Please look up its solubility at 1 day: C[C@]1(C(N)=O)CC[C@@H](n2c(Nc3c(Cl)cc(Cl)cc3Cl)nc3cnc(N[C@@H]4CCOC[C@H]4F)nc32)CC1 [Form A]
Ans. > 100 mg/mL

----------
Test system: cancer cell lines
ASSAY NOTES: Multiplexed cytotoxicity assay: cell proliferation (relative cell count IC50, GI50)
Assay type: cell-based
EXPERIMENTAL PARAMETERS: MT3 (Breast)
MEASUREMENT LABEL: pIC50
To interpret pIC50, take it as minus log10 of a concentration measured in moles per litre.

Qu. Please look up its pIC50: C[C@]1(C(N)=O)CC[C@@H](n2c(Nc3c(Cl)cc(Cl)cc3Cl)nc3cnc(N[C@@H]4CCOC[C@H]4F)nc32)CC1 [Compound 1]
Ans. 5.97

----------
ASSAY NOTES: Approximate solubility in various solvents at room temperature
Type: physicochemical
EXPERIMENTAL PARAMETERS: THF/water (1:1), aqueous with cosolvent or surfactant or cyclodextrin, thermodynamic from solid, THF/water (1:1)
MEASUREMENT LABEL: solubility at 1 day

Qu. Please look up its solubility at 1 day: C[C@]1(C(N)=O)CC[C@@H](n2c(Nc3c(Cl)cc(Cl)cc3Cl)nc3cnc(N[C@@H]4CCOC[C@H]4F)nc32)CC1 [Form A]
Ans. > 50 mg/mL

----------
Tested on: cancer cell lines
ASSAY NOTES: Multiplexed cytotoxicity assay: cell proliferation (relative cell count IC50, GI50)
Assay type: cell-based
EXPERIMENTAL PARAMETERS: Homo sapiens, ME-180, 72 h, ME180, Female GU, Ovary; 72 h
Description: Cells are grown in RPMI1640, 10% FBS, 2 mM L-alanyl-L-Glutamine, 1 mM Na pyruvate or a special medium in a humidified atmosphere of 5% CO2 at 37° C. Cells are seeded into 384-well plates and incubated in a humidified atmosphere of 5% CO2 at 37° C. […] Apoptotic cells are detected using an anti-active caspase-3 antibody. Mitotic cells are detected using an anti phospho-histone-3 antibody. […] Sixteen-bit TIFF images are acquired and analyzed with MetaXpress 5.1.0.41 software. […]
MEASUREMENT LABEL: IC50

Qu. Please look up its IC50: C[C@]1(C(N)=O)CC[C@@H](n2c(Nc3c(Cl)cc(Cl)cc3Cl)nc3cnc(N[C@@H]4CCOC[C@H]4F)nc32)CC1
Ans. > 10 µM

----------
Tested on: cancer cell lines
ASSAY NOTES: Multiplexed cytotoxicity assay: cell proliferation (relative cell count IC50, GI50)
Format: cell-based
EXPERIMENTAL PARAMETERS: Homo sapiens, Ca-Ski, 72 h, CASKI, Female GU, Ovary
MEASUREMENT LABEL: IC50

Qu. Please look up its IC50: C[C@]1(C(N)=O)CC[C@@H](n2c(Nc3c(Cl)cc(Cl)cc3Cl)nc3cnc(N[C@@H]4CCOC[C@H]4F)nc32)CC1
Ans. > 10 µM

----------
System: cancer cell lines
ASSAY NOTES: Multiplexed cytotoxicity assay: cell proliferation (relative cell count IC50, GI50)
Format: cell-based
EXPERIMENTAL PARAMETERS: Homo sapiens, SNU1, 72 h, SNU1, Stomach; 72 h
MEASUREMENT LABEL: pIC50
To interpret pIC50, take it as minus log10 of a concentration measured in moles per litre.

Qu. Please look up its pIC50: C[C@]1(C(N)=O)CC[C@@H](n2c(Nc3c(Cl)cc(Cl)cc3Cl)nc3cnc(N[C@@H]4CCOC[C@H]4F)nc32)CC1
Ans. 7.20

----------
ASSAY NOTES: physchem
EXPERIMENTAL PARAMETERS: simulated gastric fluid, thermodynamic from solid
MEASUREMENT LABEL: solubility thermodynamic at 24 h (µg/mL)
Number in µg/mL, nothing else.

Qu. Please look up its solubility thermodynamic at 24 h: C[C@]1(C(N)=O)CC[C@@H](n2c(Nc3c(Cl)cc(Cl)cc3Cl)nc3cnc(N[C@@H]4CCOC[C@H]4F)nc32)CC1 [Free Base]
Ans. 3480

----------
Tested on: 64 cancer cell lines
ASSAY NOTES: Anti-proliferative activity across a panel of 64 cancer cell lines (CellTiter-Glo)
Format: cell-based
EXPERIMENTAL PARAMETERS: Homo sapiens, SW-620, 72 h, SW620 (Colon)
MEASUREMENT LABEL: pIC50
To interpret pIC50, take it as minus log10 of a concentration measured in moles per litre.

Qu. Please look up its pIC50: C[C@]1(C(N)=O)CC[C@@H](n2c(Nc3c(Cl)cc(Cl)cc3Cl)nc3cnc(N[C@@H]4CCOC[C@H]4F)nc32)CC1
Ans. 7.04

----------
ASSAY NOTES: Approximate solubility in various solvents at room temperature
Assay type: physicochemical
EXPERIMENTAL PARAMETERS: 2-MeTHF, organic solvent or mixture, thermodynamic from solid
MEASUREMENT LABEL: solubility at 1 day

Qu. Please look up its solubility at 1 day: C[C@]1(C(N)=O)CC[C@@H](n2c(Nc3c(Cl)cc(Cl)cc3Cl)nc3cnc(N[C@@H]4CCOC[C@H]4F)nc32)CC1 [Form A]
Ans. > 50 mg/mL

----------
System: cancer cell lines
ASSAY NOTES: Multiplexed cytotoxicity assay: cell proliferation (relative cell count IC50, GI50)
Type: cell-based
EXPERIMENTAL PARAMETERS: Homo sapiens, ST486, ST486 (Hematopoietic and lymphoid, Lymphoma)
MEASUREMENT LABEL: pIC50
To interpret pIC50, take it as minus log10 of a concentration measured in moles per litre.

Qu. Please look up its pIC50: C[C@]1(C(N)=O)CC[C@@H](n2c(Nc3c(Cl)cc(Cl)cc3Cl)nc3cnc(N[C@@H]4CCOC[C@H]4F)nc32)CC1
Ans. 5.21

----------
ASSAY NOTES: Approximate solubility in various solvents at room temperature
Type: physicochemical
EXPERIMENTAL PARAMETERS: MeCN, organic solvent or mixture, thermodynamic from solid
MEASUREMENT LABEL: solubility at 1 day

Qu. Please look up its solubility at 1 day: C[C@]1(C(N)=O)CC[C@@H](n2c(Nc3c(Cl)cc(Cl)cc3Cl)nc3cnc(N[C@@H]4CCOC[C@H]4F)nc32)CC1 [Form A]
Ans. > 3000 µg/mL

----------
System: cancer cell lines
ASSAY NOTES: Multiplexed cytotoxicity assay: cell proliferation (relative cell count IC50, GI50)
Type: cell-based
EXPERIMENTAL PARAMETERS: Homo sapiens, KATO III, 72 h, KATOIII, Stomach
MEASUREMENT LABEL: pIC50
To interpret pIC50, take it as minus log10 of a concentration measured in moles per litre.

Qu. Under cancer cell lines: pIC50 value of C[C@]1(C(N)=O)CC[C@@H](n2c(Nc3c(Cl)cc(Cl)cc3Cl)nc3cnc(N[C@@H]4CCOC[C@H]4F)nc32)CC1 ?
Ans. 7.10

----------
Test system: cancer cell lines
ASSAY NOTES: Multiplexed cytotoxicity assay: cell proliferation (relative cell count IC50, GI50)
Assay type: cell-based
EXPERIMENTAL PARAMETERS: Homo sapiens, HEL 92.1.7, HEL9217 (Hematopoietic and lymphoid, Leukemia)
MEASUREMENT LABEL: IC50 (µM)
Number in µM, nothing else.

Qu. Please look up its IC50: C[C@]1(C(N)=O)CC[C@@H](n2c(Nc3c(Cl)cc(Cl)cc3Cl)nc3cnc(N[C@@H]4CCOC[C@H]4F)nc32)CC1
Ans. 8.23

Values were extracted from patent US10513519B2.
